- Experiment: Components of the Cytosolic LPS Sensing Pathway: Gene Identification via Genome-wide siRNA Screen;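 note: robust z of the log signal after scaling to non-targeting control siRNA wells of the plate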
- Test parameters: RAW264.7 macrophages, IL-1a HTRF, actives lie on both sides, screened at 100 nM (by protocol), cells primed 5 h with Pam3CSK4 first
Screen size: about 53,000 sequences; about 3,700 (7%) were called active. This is one part of a sample in which actives are shown more often than they occur.
Observation type: z-score
Please give only the number in your answer, with no unit.

Query string: Dear colleague, please send me the reported z-score for GCAUAAGCUACUGCUGACATT against Pcdha6 when you can.
Result string: -0.782

Query string: Given the sequence GCAUGCUUUCUGAAUACAATT against Cdk8 , write its reported z-score.
Result string: 2.17

Query string: Report z-score for CCUGGUAACCUGCUAAAAGTT against Gm5124
Result string: 1.24

Query string: In one line, give reported z-score of the entry GCUAUUUAGUUAGUUGUGUTT against Acbd3 .
Result string: 0.334

Query string: Kindly indicate its recorded z-score. Item: GGCUCAUCAGAUGUAAACATT against Efcab6
Result string: -2.13

Query string: Supply reported z-score belonging to this sequence: GGUAAUGGGACUUGGUAGGTT against Olfr1338
Result string: -0.056

Query string: Look up z-score of GGCCAAAAGUAUGAAAGUATT against Tspan1 and report it.
Result string: 0.45

Query string: Give recorded z-score. GGAUUAGGAAUCACAGUAGTT against Fam78a
Result string: 0.675

Query string: Look up z-score of CCGUAUAAACAUUUAUGAGTT against Bmp4 and report it.
Result string: -0.295

Query string: Specify z-score for CCACUUCCUUACGAUUGAUTT against Aadacl4fm1 and stop.
Result string: -2.09

Query string: Note z-score for the sequence shown: GGAAUAUGCUGCAAAAAUCTT against Camk2g
Result string: -1.58

Query string: Check the records and state z-score for CCUGGAGAGUGAUACGUUCTT against Serpina1f
Result string: -0.228
